# System: Sucrase-isomaltase, intestinal (Rattus norvegicus)
# Sequence (P23739 1-1013 limits assumed): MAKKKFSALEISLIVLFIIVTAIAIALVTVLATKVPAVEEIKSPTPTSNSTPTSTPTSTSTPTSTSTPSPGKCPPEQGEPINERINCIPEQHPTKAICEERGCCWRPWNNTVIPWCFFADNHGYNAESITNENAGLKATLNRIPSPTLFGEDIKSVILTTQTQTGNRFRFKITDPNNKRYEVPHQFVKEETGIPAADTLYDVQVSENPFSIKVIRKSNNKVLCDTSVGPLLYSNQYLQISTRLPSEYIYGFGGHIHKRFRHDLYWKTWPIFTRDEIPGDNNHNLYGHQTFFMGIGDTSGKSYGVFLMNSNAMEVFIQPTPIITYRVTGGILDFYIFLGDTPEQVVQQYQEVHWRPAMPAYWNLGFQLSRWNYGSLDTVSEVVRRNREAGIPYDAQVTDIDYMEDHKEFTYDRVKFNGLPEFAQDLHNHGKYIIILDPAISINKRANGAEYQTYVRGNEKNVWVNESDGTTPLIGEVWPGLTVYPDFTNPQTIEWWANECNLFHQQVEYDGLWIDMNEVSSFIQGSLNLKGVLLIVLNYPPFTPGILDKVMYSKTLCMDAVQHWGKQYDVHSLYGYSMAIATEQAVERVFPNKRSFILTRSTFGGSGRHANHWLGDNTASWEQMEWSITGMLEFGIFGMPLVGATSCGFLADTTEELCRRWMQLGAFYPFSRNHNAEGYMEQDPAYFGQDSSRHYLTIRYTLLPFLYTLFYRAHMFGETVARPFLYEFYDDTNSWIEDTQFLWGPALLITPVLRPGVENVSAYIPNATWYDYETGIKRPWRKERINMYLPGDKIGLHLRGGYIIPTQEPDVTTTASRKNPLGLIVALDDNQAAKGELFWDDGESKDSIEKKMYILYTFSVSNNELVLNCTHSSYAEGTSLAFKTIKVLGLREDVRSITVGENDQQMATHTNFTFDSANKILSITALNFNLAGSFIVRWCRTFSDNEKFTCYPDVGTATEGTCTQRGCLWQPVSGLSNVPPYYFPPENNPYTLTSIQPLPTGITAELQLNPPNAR
# Sequence (P23739 1014-1841 limits assumed): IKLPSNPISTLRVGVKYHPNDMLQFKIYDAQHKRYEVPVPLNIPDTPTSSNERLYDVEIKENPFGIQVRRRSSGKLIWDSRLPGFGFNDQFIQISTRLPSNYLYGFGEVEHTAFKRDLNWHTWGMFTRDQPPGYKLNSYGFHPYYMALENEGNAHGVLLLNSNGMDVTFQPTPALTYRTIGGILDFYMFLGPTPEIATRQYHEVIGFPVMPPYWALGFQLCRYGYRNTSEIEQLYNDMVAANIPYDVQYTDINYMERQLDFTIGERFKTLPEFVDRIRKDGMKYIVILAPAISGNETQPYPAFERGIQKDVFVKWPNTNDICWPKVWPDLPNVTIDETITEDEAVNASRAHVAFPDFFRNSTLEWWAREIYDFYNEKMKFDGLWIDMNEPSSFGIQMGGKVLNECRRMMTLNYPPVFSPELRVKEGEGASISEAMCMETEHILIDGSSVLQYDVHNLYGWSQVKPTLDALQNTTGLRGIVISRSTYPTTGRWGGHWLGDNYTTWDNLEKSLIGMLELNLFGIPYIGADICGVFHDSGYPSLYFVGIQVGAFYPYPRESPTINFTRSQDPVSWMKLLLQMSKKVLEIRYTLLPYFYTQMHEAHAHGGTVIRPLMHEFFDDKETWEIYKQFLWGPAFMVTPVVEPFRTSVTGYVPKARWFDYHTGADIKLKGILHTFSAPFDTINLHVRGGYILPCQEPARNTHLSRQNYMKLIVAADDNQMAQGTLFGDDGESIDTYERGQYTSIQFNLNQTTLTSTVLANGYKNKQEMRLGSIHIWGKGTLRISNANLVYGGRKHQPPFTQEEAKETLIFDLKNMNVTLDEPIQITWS
# Assay Info: Inhibition of rat intestinal brush border membrane sucrase
Parameter Measured: pIC50
Numbers only, as −log10 of the molar value.

For orientation, consider the following solved cases.
{"Compound": "OC[C@H]1N[C@H](CO[C@@H]2O[C@H](CO)[C@@H](O)[C@H](O)[C@H]2O)[C@H](O)[C@@H](O)[C@@H]1O", "System": "Sucrase-isomaltase, intestinal (Rattus norvegicus)", "pIC50": 5.59}
{"Compound": "OCC(CO)N[C@H]1C[C@](O)(CO)[C@@H](O)[C@H](O)[C@H]1O [VOGLIBOSE]", "System": "Sucrase-isomaltase, intestinal (Rattus norvegicus)", "pIC50": 7.15}
{"Compound": "OC[C@H]1NCC[C@@H](O)[C@@H]1O [FAGOMINE]", "System": "Sucrase-isomaltase, intestinal (Rattus norvegicus)", "pIC50": 4.05}

Consider the additional compound presented here.
The measured pIC50 associated with N[C@H]1C[C@](O)(CO)[C@@H](O)[C@H](O)[C@H]1O [VALIOLAMINE] reads 6.16

----------
# Assay Info: Inhibition of pig intestinal sucrase
# Set-up: species or system Sus scrofa
Parameter Measured: pIC50
Answers are plain numbers, as −log10 of the molar value.

The measured pIC50 associated with N[C@H]1C[C@](O)(CO)[C@@H](O)[C@H](O)[C@H]1O [VALIOLAMINE] reads 7.31
